Assay: Pharmacokinetic study in male SD rats, intragastric
Format: in vivo
Details: male, SD, plasma, po; rat, 5 mg/kg
endpointLabel: half-life (h)
Give just the number in h; leave the unit off.

Q: Value lookup for half-life; key = Nc1nccn2c(C34CCC(NC(=O)CN5CCOCC5)(CC3)C4)nc(-c3ccc(C(=O)Nc4cc(C(F)(F)F)ccn4)cc3)c12 [Compound A-10-10]
Result: 3.74

###

Target: BTK(C481S) (Homo sapiens (Human), UniProt Q06187, C481S)
Sequence (Q06187 whole entry C481S): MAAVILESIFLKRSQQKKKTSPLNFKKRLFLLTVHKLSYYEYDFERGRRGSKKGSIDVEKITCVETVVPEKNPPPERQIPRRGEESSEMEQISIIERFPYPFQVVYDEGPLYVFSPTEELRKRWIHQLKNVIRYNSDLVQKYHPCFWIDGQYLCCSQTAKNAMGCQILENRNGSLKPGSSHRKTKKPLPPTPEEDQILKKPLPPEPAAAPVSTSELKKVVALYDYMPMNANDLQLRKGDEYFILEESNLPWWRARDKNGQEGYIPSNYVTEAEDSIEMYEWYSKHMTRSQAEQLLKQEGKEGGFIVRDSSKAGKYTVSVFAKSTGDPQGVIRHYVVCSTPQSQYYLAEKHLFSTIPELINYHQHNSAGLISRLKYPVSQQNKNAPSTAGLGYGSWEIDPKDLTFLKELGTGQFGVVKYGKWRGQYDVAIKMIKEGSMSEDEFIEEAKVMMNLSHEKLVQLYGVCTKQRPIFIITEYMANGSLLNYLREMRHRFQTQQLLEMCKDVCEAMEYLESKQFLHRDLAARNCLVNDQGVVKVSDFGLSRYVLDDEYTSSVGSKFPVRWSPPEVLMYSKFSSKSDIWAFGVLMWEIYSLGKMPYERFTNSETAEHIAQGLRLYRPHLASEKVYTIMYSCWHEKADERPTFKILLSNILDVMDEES
Experiment: In vitro inhibitory activity against BTK(C481S) enzyme (33P-ATP filter binding)
Assay type: biochemical
Settings: class symbols; read-out: IC50 BTK(C48IS)
pIC50: −log10 of the molar value.
endpointLabel: pIC50

Q: Value lookup for pIC50; key = CC#CC(=O)NC12CCC(c3nc(-c4ccc(C(=O)Nc5cc(C(F)(F)F)ccn5)cc4)c4c(N)nccn34)(CC1)C2 [Compound A-7-3]
Result: 9.00 to 10.00

Q: Value lookup for pIC50; key = Nc1ncnc2c1n(-c1ccc(C(=O)Nc3cc(C(F)(F)F)ccn3)cc1)c(=O)n2C12CCC(NC(=O)CN3CCOCC3)(CC1)C2 [Compound C-7-2]
Result: 9.00 to 10.00

Q: Value lookup for pIC50; key = Nc1nccn2c(C34CCC(NC(=O)c5cccnc5)(CC3)C4)nc(-c3ccc(C(=O)Nc4cc(C(F)(F)F)ccn4)cc3)c12 [Compound A-10-19]
Result: 8.00 to 9.00

Q: Value lookup for pIC50; key = COc1ccc(F)cc1C(=O)NCc1ccc(-c2nc(C34CCC(NC(=O)C(C)(C)O)(CC3)C4)n3ccnc(N)c23)cc1 [Compound A-16-1]
Result: 8.00 to 9.00

Q: Value lookup for pIC50; key = CC#CC(=O)NC12CCC(c3nc(-c4ccc(C(=O)Nc5cc(F)ccn5)cc4)c4c(N)nccn34)(CC1)C2 [Compound A-7-2]
Result: 9.00 to 10.00

Q: Value lookup for pIC50; key = Nc1nccn2c(C34CCC(NC(=O)c5nccs5)(CC3)C4)nc(-c3ccc(C(=O)Nc4cc(C(F)(F)F)ccn4)cc3)c12 [Compound A-10-22]
Result: 8.00 to 9.00

Q: Value lookup for pIC50; key = COc1ccc(F)cc1C(=O)NCc1ccc(-c2nc(C34CCC(NC(=O)C5(C)COC5)(CC3)C4)n3ccnc(N)c23)cc1 [Compound A-16-3]
Result: 8.00 to 9.00
